experiment: in vivo; settings: male, Sprague-Dawley, rat, sc, 20 mg/kg
Non-standard residues stand in square brackets, D forms with d. Residues, ends and D or L forms follow the SMILES beside them. αMeF = C[C@](N)(Cc1ccccc1)C(=O)O; Aib = CC(C)(N)C(=O)O
reported_property: half-life

Consider the compound shown here: CC(=O)N[C@@H](CCCNC(=N)N)C(=O)NC(C)(C)C(=O)N[C@@H](CCCNC(=N)N)C(=O)N[C@@](C)(Cc1ccccc1)C(N)=O [UPARANT, Ac‐L‐Arg‐Aib‐L‐Arg‐L‐Cα(Me)PheNH2] (Ac-R[Aib]R[αMeF]-NH2) What is its recorded half-life?
2.2 h

====

experiment: in vivo; conditions: male, Sprague-Dawley, rat, sc, 20 mg/kg, concentration of UPARANT in the kidney
Non-standard residues stand in square brackets, D forms with d. Residues, ends and D or L forms follow the SMILES beside them. αMeF = C[C@](N)(Cc1ccccc1)C(=O)O; Aib = CC(C)(N)C(=O)O
reported_property: tissue level at time at 24 h (ng/g)
The answer is to be given in ng/g; state only the numeric part.

Consider the molecule shown here: CC(=O)N[C@@H](CCCNC(=N)N)C(=O)NC(C)(C)C(=O)N[C@@H](CCCNC(=N)N)C(=O)N[C@@](C)(Cc1ccccc1)C(N)=O [UPARANT, Ac‐L‐Arg‐Aib‐L‐Arg‐L‐Cα(Me)PheNH2] (Ac-R[Aib]R[αMeF]-NH2) What is its recorded tissue level at time at 24 h?
45900

====

assay: in vivo; details: male, Sprague-Dawley, rat, sc, 20 mg/kg, tmax
Non-standard residues stand in square brackets, D forms with d. Residues, ends and D or L forms follow the SMILES beside them. αMeF = C[C@](N)(Cc1ccccc1)C(=O)O; Aib = CC(C)(N)C(=O)O
reported_property: tmax (h)
The answer is to be given in h; state only the numeric part.

Consider the compound shown here: CC(=O)N[C@@H](CCCNC(=N)N)C(=O)NC(C)(C)C(=O)N[C@@H](CCCNC(=N)N)C(=O)N[C@@](C)(Cc1ccccc1)C(N)=O [UPARANT, Ac‐L‐Arg‐Aib‐L‐Arg‐L‐Cα(Me)PheNH2] (Ac-R[Aib]R[αMeF]-NH2) What is its recorded tmax?
2.3
